System: Pseudomonas aeruginosa
Assay: In vitro antibacterial activity against Pseudomonas aeruginosa 1592E by agar dilution method using Mueller-Hinton
Assay type: functional
PROPERTY NAME: MIC (µg/mL)

Some entries whose results are on file:
C[C@@H](O)[C@H]1C(=O)N2C(C(=O)O)=C(S[C@@H]3CN[C@H](CSc4nnnn4CCC(N)=O)C3)[C@H](C)[C@H]12	0.781
CNS(=O)(=O)CCn1nnnc1SC[C@@H]1C[C@H](SC2=C(C(=O)O)N3C(=O)[C@H]([C@@H](C)O)[C@H]3[C@H]2C)CN1	3.12
CNC(=O)Cn1nnnc1SC[C@@H]1C[C@H](SC2=C(C(=O)O)N3C(=O)[C@H]([C@@H](C)O)[C@H]3[C@H]2C)CN1	1.56
C[C@@H](O)[C@H]1C(=O)N2C(C(=O)O)=C(S[C@@H]3CN[C@H](CSc4nnnn4C)C3)[C@H](C)[C@H]12	0.781
C[C@@H](O)[C@H]1C(=O)N2C(C(=O)O)=C(S[C@@H]3CN[C@H](CSc4nnnn4CCN(C)C)C3)[C@H](C)[C@H]12	3.12
C[C@@H](O)[C@H]1C(=O)N2C(C(=O)O)=C(S[C@@H]3CN[C@H](CSc4nnnn4-c4ccccc4)C3)[C@H](C)[C@H]12	50

1: C[C@@H](O)[C@H]1C(=O)N2C(C(=O)O)=C(S[C@@H]3CN[C@H](CSc4nnnn4CCS(=O)(=O)N(C)C)C3)[C@H](C)[C@H]12
2: C[C@@H](O)[C@H]1C(=O)N2C(C(=O)O)=C(S[C@@H]3CN[C@H](CSc4nnnn4-c4ccncc4)C3)[C@H](C)[C@H]12
[in] Which is greater in MIC, the first item 1 or the second item 2 ? Your answer should be the label of the entry you select.
[out] 2

---

Assay: The area under concentration-time curve(AUC) was determined at 20 mg/kg of compound dose, administered intravenously in rat
Type: ADME, organism-based
Design: dose 20 mg/kg, route intravenous
Conditions: in vivo, iv
PROPERTY NAME: AUC (ng·h/mL)
Record the value in ng·h/mL, omitting the unit from your answer.

C[C@@H](O)[C@H]1C(=O)N2C(C(=O)O)=C(S[C@@H]3CN[C@H](CSc4nnnn4C)C3)[C@H](C)[C@H]12	15900

We now examine a further compound.
Lookup result for C[C@@H](O)[C@H]1C(=O)N2C(C(=O)O)=C(SCCNC=N)C[C@H]12 [IMIPENEM ANHYDROUS] ; measured AUC: 5500

---

Test system: Salmonella typhimurium
Experiment: In vitro antibacterial activity against Salmonella Typhimurium by agar dilution method using Mueller-Hinton
Format: functional, Salmonella enterica subsp. enterica serovar Typhimurium
Settings: Salmonella enterica
PROPERTY NAME: MIC (µg/mL)

C[C@@H](O)[C@H]1C(=O)N2C(C(=O)O)=C(S[C@@H]3CN[C@H](CSc4nnnn4CCC(N)=O)C3)[C@H](C)[C@H]12	0.049
C[C@@H](O)[C@H]1C(=O)N2C(C(=O)O)=C(S[C@@H]3CN[C@H](CSc4nnnn4-c4ccncc4)C3)[C@H](C)[C@H]12	0.049
CNC(=O)CCn1nnnc1SC[C@@H]1C[C@H](SC2=C(C(=O)O)N3C(=O)[C@H]([C@@H](C)O)[C@H]3[C@H]2C)CN1	0.049

---

Test system: Staphylococcus aureus
Experiment: In vitro antibacterial activity against Staphylococcus aureus SG 503 by agar dilution method using Mueller-Hinton
Assay type: functional
PROPERTY NAME: MIC (µg/mL)

C[C@@H](O)[C@H]1C(=O)N2C(C(=O)O)=C(S[C@@H]3CN[C@H](CSc4nnnn4CCO)C3)[C@H](C)[C@H]12	0.049
CNS(=O)(=O)CCn1nnnc1SC[C@@H]1C[C@H](SC2=C(C(=O)O)N3C(=O)[C@H]([C@@H](C)O)[C@H]3[C@H]2C)CN1	0.025

a: C[C@@H](O)[C@H]1C(=O)N2C(C(=O)O)=C(S[C@@H]3CN[C@H](CSc4nnnn4CCC(N)=O)C3)[C@H](C)[C@H]12
b: C[C@@H](O)[C@H]1C(=O)N2C(C(=O)O)=C(S[C@@H]3CN[C@H](CSc4nnnn4-c4ccncc4)C3)[C@H](C)[C@H]12
[in] Smaller MIC value, a vs b ? Give the chosen item's label as your response.
[out] a

P: CNC(=O)CCn1nnnc1SC[C@@H]1C[C@H](SC2=C(C(=O)O)N3C(=O)[C@H]([C@@H](C)O)[C@H]3[C@H]2C)CN1
Q: CNC(=O)Cn1nnnc1SC[C@@H]1C[C@H](SC2=C(C(=O)O)N3C(=O)[C@H]([C@@H](C)O)[C@H]3[C@H]2C)CN1
[in] Sorting by MIC in descending order, would P or Q appear first? Answer with the label corresponding to your selection.
[out] Q
(Q: 0.098 µg/mL, P: 0.049 µg/mL)

1: C[C@@H](O)[C@H]1C(=O)N2C(C(=O)[O-])=C(S[C@@H]3CN[C@H](CSc4nnnn4CC[N+](C)(C)C)C3)[C@H](C)[C@H]12
2: C[C@@H](O)[C@H]1C(=O)N2C(C(=O)O)=C(S[C@@H]3CN[C@H](CSc4nnnn4CCN(C)C)C3)[C@H](C)[C@H]12
[in] Given 1 and 2 , report the one with the higher recorded MIC. I would appreciate it if you answered with the label of your choice.
[out] 1

P: C[C@@H](O)[C@H]1C(=O)N2C(C(=O)O)=C(S[C@@H]3CN[C@H](CSc4nnnn4CC(=O)N(C)C)C3)[C@H](C)[C@H]12
Q: C[C@@H](O)[C@H]1C(=O)N2C(C(=O)O)=C(S[C@@H]3CN[C@H](CSc4nnnn4C)C3)[C@H](C)[C@H]12
[in] Looking at recorded values for MIC, does P or Q come in lower? Respond using the label that marks the chosen record.
[out] Q
